procedure-details: pharmacokinetics, plasma concentrations by LC-MS/MS
test-context: human, plasma, intravenous, 7.4 mg m^−2, AUC(l), mean, 2-h infusion, 7.4 mg m^−2, n=1
quantity-measured: AUC

1) CCc1cnn2c(NCc3ccc[n+]([O-])c3)cc(N3CCCC[C@H]3CCO)nc12; 975 ng·h/mL

###

procedure-details: pharmacokinetics, plasma concentrations by LC-MS/MS
test-context: human, plasma, intravenous, 41.4 mg m^−2, AUC(tf), mean, 2-h infusion, 41.4 mg m^−2, n=6
quantity-measured: AUC (ng·h/mL)

1) CCc1cnn2c(NCc3ccc[n+]([O-])c3)cc(N3CCCC[C@H]3CCO)nc12 [dinaciclib, Dinaciclib]; 2860
